Target: T1, human ASGR-1 (human, UniProt P07306 1-291)
T1 construct: Stably expressed on CHO-S cells (CHO-S:huASGR-1); The method text says human or mouse ASGR-1 cells were used; also called huASGR-1; hASGR-1
T1 sequence: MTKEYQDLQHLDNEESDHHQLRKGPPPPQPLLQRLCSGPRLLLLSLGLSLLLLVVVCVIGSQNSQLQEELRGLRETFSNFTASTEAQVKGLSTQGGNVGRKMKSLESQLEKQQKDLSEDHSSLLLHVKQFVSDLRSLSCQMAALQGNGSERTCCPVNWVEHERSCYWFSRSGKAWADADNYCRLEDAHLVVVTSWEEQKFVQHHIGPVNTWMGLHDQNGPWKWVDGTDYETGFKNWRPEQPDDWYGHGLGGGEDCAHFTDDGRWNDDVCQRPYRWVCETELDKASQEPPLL
Assay: FACS ligand blocking on CHO-S ASGR-1 cells; competitor biotinylated asialofetuin
experimental-endpoint: IC50 (nM)
Your answer is read as nM, so omit the unit and give the number.

These solved cases illustrate the format of a correct answer.
binder	IC50 (nM)
75G3 (antibody, V domains shown) VH: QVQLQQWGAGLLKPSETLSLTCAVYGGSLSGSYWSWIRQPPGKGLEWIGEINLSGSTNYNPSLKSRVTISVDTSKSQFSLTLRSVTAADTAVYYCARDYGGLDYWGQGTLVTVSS VL: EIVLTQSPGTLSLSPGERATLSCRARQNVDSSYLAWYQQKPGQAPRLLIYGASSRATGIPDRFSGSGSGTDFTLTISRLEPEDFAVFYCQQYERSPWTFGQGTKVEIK	29
4B1 (antibody, V domains shown) VH: QVQLQESGPGLVKPSETLSLTCSVSGDSISSYSWSWIRQPAGKGLEWIGRIYTSGSTNYIPSLKSRITMSVDTSKKQFSLKLSSVTAADTAVYYCARDLKSSGCLFFDYWGQGTLVTVSS VL: DIQMTQSPSSLSASVGDRVTITCRASHTIRTYLNWYQQKPGKAPKLLIYAASSLQSGVPSRINGSGSGTDFTLTITNLQPEDFATYYCQQSYNISFTFGPGTKVDIK	64
7G4 (antibody, V domains shown) VH: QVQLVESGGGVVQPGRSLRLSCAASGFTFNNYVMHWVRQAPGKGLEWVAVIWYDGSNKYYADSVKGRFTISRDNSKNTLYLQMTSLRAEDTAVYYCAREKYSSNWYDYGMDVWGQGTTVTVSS VL: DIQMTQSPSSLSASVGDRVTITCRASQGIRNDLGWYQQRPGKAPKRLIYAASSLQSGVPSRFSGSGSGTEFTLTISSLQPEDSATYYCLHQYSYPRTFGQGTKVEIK	14
194C1 (antibody, V domains shown) VH: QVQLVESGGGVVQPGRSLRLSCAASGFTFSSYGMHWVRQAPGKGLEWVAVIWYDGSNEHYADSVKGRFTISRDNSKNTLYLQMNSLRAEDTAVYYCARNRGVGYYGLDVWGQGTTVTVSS VL: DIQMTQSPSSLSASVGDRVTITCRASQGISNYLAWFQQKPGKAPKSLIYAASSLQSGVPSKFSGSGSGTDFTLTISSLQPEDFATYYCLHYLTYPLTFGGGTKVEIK	34
6G7 (antibody, V domains shown) VH: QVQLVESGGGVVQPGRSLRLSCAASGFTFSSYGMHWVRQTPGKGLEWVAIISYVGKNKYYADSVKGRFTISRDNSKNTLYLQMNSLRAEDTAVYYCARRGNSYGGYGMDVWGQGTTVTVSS VL: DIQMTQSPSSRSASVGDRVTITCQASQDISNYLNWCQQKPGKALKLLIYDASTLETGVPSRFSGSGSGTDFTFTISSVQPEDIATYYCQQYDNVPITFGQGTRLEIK	11

Please find the next binder below.
INPUT: What value of measured IC50 is listed for 72G9 (antibody, V domains shown) VH: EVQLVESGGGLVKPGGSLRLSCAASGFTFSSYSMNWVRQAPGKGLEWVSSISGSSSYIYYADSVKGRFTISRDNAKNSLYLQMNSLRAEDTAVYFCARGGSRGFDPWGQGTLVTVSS VL: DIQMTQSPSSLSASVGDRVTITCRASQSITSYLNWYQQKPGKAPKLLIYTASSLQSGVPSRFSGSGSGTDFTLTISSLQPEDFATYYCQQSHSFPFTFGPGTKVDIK ?
OUTPUT: 53
